Answer each item with its documented protein stability index.
B1: EHMT1 (parent)
chain: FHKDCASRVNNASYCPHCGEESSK

Variants of: B1
PROTOCOL_DETAILS: protein stability index of a GFP-peptide fusion (GPS, HEK-293T) (PSI 1-6); higher = more stable;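 note: lentivirally expressed fusions sorted by FACS into six bins by GFP to DsRed ratio, PSI derived from sequencing read proportions per bin multiplied by bin number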
CONDITION_LABEL: c terminus: a fixed tail appended
Answer with the value's number alone.

q: Form field: reported protein stability index of S13T
a: 3.72

q: Please do the same for R8W as well.
a: 1.91

q: Let us now turn to V9K
a: 3.66

q: Field entry: A6S
a: 3.52

q: // same read-out, input: G19A
a: 3.93

q: Likewise for P16L ?
a: 3.35

q: Next variant up: V9S
a: 3.79

q: Now the variant S22W
a: 2.54

q: Same read-out for S22I ?
a: 3.68

q: How about this variant: D4A
a: 3.16

q: // same read-out, input: P16G
a: 3.24

q: What do you have for K24P ?
a: 3.22

q: Okay, and G19Q ?
a: 3.35

q: Thanks! And C18G ?
a: 3.63

q: Again, but for R8C
a: 3.66

q: Try A6K next.
a: 3.53

q: Follow-up item: N11Q
a: 3.47

q: And the next one, P16M ?
a: 3.07

q: // repeat for S23V and report
a: 3.41

q: Consider next the variant S7Q in the same way.
a: 3.23

q: Thanks! And E21N ?
a: 3.17

q: Same thing, different variant: R8D
a: 3.43

q: Same for H2R
a: 3.65

q: And then H17K , what is it?
a: 3.43

q: Here is the next variant: R8G
a: 3.97

q: Same thing, different variant: Y14Q
a: 4

q: Also check C18N
a: 3.67

q: Now consider N10K .
a: 3.1

q: Please do the same for P16C as well.
a: 3.11

q: What do you get for H17T ?
a: 3.58

q: D4V , same question.
a: 2.41

q: Consider next the variant S22C in the same way.
a: 3.59

q: # iterate: G19D
a: 3.9

q: Now consider S7I .
a: 3.54

q: Next record, please: S22D
a: 3.35

q: Subsequent entry: Y14L
a: 3.82

q: And then H2Q , what is it?
a: 3.1

q: # iterate: V9N
a: 3.39

q: # repeat for A12L
a: 3.06

q: Then this variant: D4K
a: 2.59

q: Item: E21G
a: 3.29

q: For E20V then?
a: 2.94

q: Same thing, different variant: A12P
a: 3.25

q: Let us now turn to G19L
a: 3.67

q: Now consider C15K and answer again.
a: 3.68

q: Same thing, different variant: C15V
a: 3.67

Each recorded value in this set is attributed to the supplement of paper PMC10567573.
